System: HCV2aChLuc virus
Protocol text: In vitro HCVcc entry assay: HCV2aChLuc virus infection of Huh7 cells, Renilla luciferase read-out
Assay type: cell-based, HCV genotype 2a
Test parameters: Hepatitis C virus, Huh-7, read-out: Activity class (IC50), tested according to the method of Example 3
pIC50: −log10 of the molar value.
Measurement label: pIC50

stdin: State the recorded pIC50 for this entry: CCOc1ccc(C(=O)C(=O)Nc2cc(C(C)(C)C)ccc2OC)c2ccccc12 [Compound 19]
stdout: > 8.30

stdin: State the recorded pIC50 for this entry: COc1c(Cl)cc(C(C)(C)C)cc1NC(=O)C(=O)c1ccc(OCCN2CCOCC2)c2ccccc12 [Compound 72]
stdout: 6.30 to 8.30

stdin: State the recorded pIC50 for this entry: CC(C)(C)CC(C)(C)NC(=O)C(=O)c1ccc(OCCN2CCOCC2)c2ccccc12 [Compound 67]
stdout: < 6.30

stdin: State the recorded pIC50 for this entry: COc1c(C#N)cc(C(C)(C)C)cc1NC(=O)C(=O)c1ccc(OCCN2CCOCC2)c2ccccc12 [Compound 4]
stdout: > 8.30

stdin: State the recorded pIC50 for this entry: COc1c(NC(=O)C(=O)c2ccc(OCCN3CCNCC3)c3ccccc23)cc(C(C)(C)C)cc1NS(C)(=O)=O [Compound 58]
stdout: < 6.30

stdin: State the recorded pIC50 for this entry: COc1c(NC(=O)C(=O)c2ccc(OCCN(C)C)c3ccccc23)cc(C(C)(C)C)cc1NS(C)(=O)=O [Compound 80]
stdout: < 6.30

stdin: State the recorded pIC50 for this entry: COc1c(NC(=O)C(=O)c2ccc(OCCn3ccnc3)c3ccccc23)cc(C(C)(C)C)cc1NS(C)(=O)=O [Compound 55]
stdout: 6.30 to 8.30

====

Test system: HCV2aChLuc virus
Protocol text: In vitro HCVcc entry assay: HCV2aChLuc virus infection of Huh7 cells, Renilla luciferase read-out
Type: cell-based, HCV genotype 2a
Test parameters: Hepatitis C virus, Huh-7, read-out: Activity class (IC50), tested according to the method of Example 3
pIC50: −log10 of the molar value.
Measurement label: pIC50

stdin: State the recorded pIC50 for this entry: CNC(=O)c1cc(C(C)(C)C)cc(NC(=O)C(=O)c2ccc(OCCN3CCOCC3)c3ccccc23)c1OC [Compound 6]
stdout: > 8.30

stdin: State the recorded pIC50 for this entry: O=C(NC1Cc2ccccc2C1)C(=O)c1ccc(OCCN2CCOCC2)c2ccccc12 [Compound 114]
stdout: < 6.30

stdin: State the recorded pIC50 for this entry: Cc1cccc(-n2nc(C(C)(C)C)cc2NC(=O)C(=O)c2ccc(OCCN3CCOCC3)c3ccccc23)c1C [Compound 49]
stdout: < 6.30

stdin: State the recorded pIC50 for this entry: COc1c(NC(=O)C(=O)c2ccc(OCCN3CCOCC3)c3ccccc23)cc(C(C)(C)C)cc1C(=O)N1CCNCC1 [Compound 97]
stdout: < 6.30

====

Test system: HCV2aChLuc virus
Protocol text: In vitro HCVcc entry assay: HCV2aChLuc virus infection of Huh7 cells, Renilla luciferase read-out
Format: cell-based, HCV genotype 2a
Test parameters: Hepatitis C virus, Huh-7, read-out: Activity class (IC50), tested according to the method of Example 3
pIC50: −log10 of the molar value.
Consider the following compounds; for each one, report its pIC50.

stdin: State the recorded pIC50 for this entry: CCNC(=O)c1cc(C(C)(C)C)cc(NC(=O)C(=O)c2ccc(OCCN3CCOCC3)c3ccccc23)c1O
stdout: 6.30 to 8.30

stdin: State the recorded pIC50 for this entry: CCCS(=O)(=O)Nc1cc(C(C)(C)C)cc(NC(=O)C(=O)c2ccc(N3CCC(CC(=O)OCC)CC3)c3ccccc23)c1OC
stdout: < 6.30

stdin: State the recorded pIC50 for this entry: CC(C)(C)c1cc(NC(=O)C(=O)c2ccc(OCCN3CCOCC3)c3ccccc23)on1
stdout: < 6.30

stdin: State the recorded pIC50 for this entry: O=C(Nc1cc(Br)cnc1Cl)C(=O)c1ccc(OCCN2CCOCC2)c2ccccc12
stdout: 6.30 to 8.30

stdin: State the recorded pIC50 for this entry: Cn1nc(C(C)(C)C)cc1NC(=O)C(=O)c1ccc(OCCN2CCOCC2)c2ccccc12
stdout: < 6.30

stdin: State the recorded pIC50 for this entry: CCC(C)(C)c1cc(NC(=O)C(=O)c2ccc(OCCN3CCOCC3)c3ccccc23)c(OC)c(C(C)(C)CC)c1
stdout: 6.30 to 8.30

stdin: State the recorded pIC50 for this entry: Cc1ccc(Cl)cc1NC(=O)C(=O)c1ccc(OCCN2CCOCC2)c2ccccc12
stdout: < 6.30
